Measurement target: His-BIR2-3 (125-356, C202A/C213G, XIAP) (Homo sapiens (Human), UniProt P98170, C202A/C213G)
Sequence (P98170 125-356 C202A/C213G): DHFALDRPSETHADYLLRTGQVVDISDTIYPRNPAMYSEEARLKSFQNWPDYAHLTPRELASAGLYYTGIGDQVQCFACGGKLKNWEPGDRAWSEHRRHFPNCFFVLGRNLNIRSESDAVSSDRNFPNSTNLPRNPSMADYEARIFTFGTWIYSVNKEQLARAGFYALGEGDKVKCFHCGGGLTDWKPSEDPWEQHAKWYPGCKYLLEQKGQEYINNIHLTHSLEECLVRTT
Assay procedure: XIAP-BIR2-3 Dimeric SMAC Peptide Homogeneous Time Resolved Fluorescence (HTRF) Assay
Format: binding
Assay context: fluorescein labeled dimeric SMAC peptide
Measurement name: pIC50
Scale note: pIC50 = -log10(concentration in M).

{"Compound": "CN[C@@H](C)C(=O)N[C@H](C(=O)N1Cc2cc(NC(=O)c3cccc4c3ccn4C(=O)N[C@H]3C[C@@H](C(=O)N[C@@H]4CCCc5ccccc54)N(C(=O)[C@@H](NC(=O)[C@H](C)NC)C(C)(C)C)C3)ccc2C[C@H]1C(=O)N[C@H](C)c1ccccc1F)C(C)(C)C [Example 51]", "pIC50": 7.57}
{"Compound": "CN[C@@H](C)C(=O)N[C@H](C(=O)N1Cc2cc(NC(=O)c3ccc(C(=O)N[C@H]4C[C@@H](C(=O)N[C@@H]5CCCc6ccccc65)N(C(=O)[C@@H](NC(=O)[C@H](C)NC)C(C)(C)C)C4)cc3)ccc2C[C@H]1C(=O)N[C@@H](COC)c1ccccc1)C(C)(C)C [Example 13]", "pIC50": 7.96}
{"Compound": "CN[C@@H](C)C(=O)N[C@H](C(=O)N1Cc2ccc(NC(=O)c3ccc(C(=O)N[C@H]4C[C@@H](C(=O)N[C@@H]5CCCc6ccccc65)N(C(=O)[C@@H](NC(=O)[C@H](C)NC)C(C)(C)C)C4)cc3)cc2C[C@H]1C(=O)N[C@@H]1CCCc2ccccc21)C(C)(C)C [Example 2]", "pIC50": 8.40}

Would you kindly look at the next entry?
Entry CN[C@@H](C)C(=O)N[C@H](C(=O)N1Cc2cc(C(=O)Nc3ncc(C(=O)N[C@H]4C[C@@H](C(=O)N[C@@H]5CCCc6ccccc65)N(C(=O)[C@@H](NC(=O)[C@H](C)NC)C(C)(C)C)C4)s3)ccc2C[C@H]1C(=O)N[C@@H]1CCCc2ccccc21)C(C)(C)C [Example 21] : reported pIC50 = ? 8.22

---

Entries annotated with measured pIC50
Measurement target: His-BIR3 (241-356, XIAP) (Homo sapiens (Human), UniProt P98170)
Sequence (P98170 241-356): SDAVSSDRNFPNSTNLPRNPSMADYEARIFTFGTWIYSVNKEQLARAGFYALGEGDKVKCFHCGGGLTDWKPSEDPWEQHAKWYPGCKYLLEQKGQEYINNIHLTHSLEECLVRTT
Assay procedure: XIAP-BIR3/SMAC Homogeneous Time Resolved Fluorescence (HTRF) Assay
Assay context: fluorescein labeled SMAC peptide
Scale note: pIC50 = -log10(concentration in M).

{"Molecule": "CN[C@@H](C)C(=O)N[C@H](C(=O)N1Cc2cc(NC(=O)c3ccc4c(ccn4C(=O)N[C@H]4C[C@@H](C(=O)N[C@@H]5CCCc6ccccc65)N(C(=O)[C@@H](NC(=O)[C@H](C)NC)C(C)(C)C)C4)c3)ccc2C[C@H]1C(=O)N[C@@H]1CCCc2ccccc21)C(C)(C)C", "Measurement name": "pIC50", "Quantitative readout": 7.29}
{"Molecule": "CCN[C@@H](C)C(=O)N[C@H](C(=O)N1Cc2cc(OCc3ccc(C(=O)NC4C[C@@H](C(=O)NC5CCCc6ccccc65)N(C(=O)[C@@H](NC(=O)[C@H](C)NC)C(C)(C)C)C4)cc3)ccc2C[C@H]1C(=O)NC1CCCc2ccccc21)C(C)(C)C (stereo partly shown)", "Measurement name": "pIC50", "Quantitative readout": 7.05}
{"Molecule": "CN[C@@H](C)C(=O)N[C@H](C(=O)N1C[C@@H](NC(=O)c2ccc(C(=O)Nc3ccc4c(c3)CN(C(=O)[C@@H](NC(=O)[C@H](C)NC)C(C)(C)SCC(=O)O)[C@H](C(=O)N[C@@H]3CCCc5ccccc53)C4)cc2)C[C@H]1C(=O)N[C@@H]1CCCc2ccccc21)C(C)(C)C", "Measurement name": "pIC50", "Quantitative readout": 8.00}

Identify the measured pIC50 of "CN[C@@H](C)C(=O)N[C@H](C(=O)N1C[C@@H](NC(=O)c2ccc(C(=O)Nc3ccc4c(c3)CN(C(=O)[C@@H](NC(=O)[C@H](C)NC)C(C)(C)SCc3ncc(C(C)(C)C)o3)[C@H](C(=O)N[C@@H]3CCCc5ccccc53)C4)cc2)C[C@H]1C(=O)N[C@@H]1CCCc2ccccc21)C(C)(C)C" for His-BIR3 (241-356, XIAP) (Homo sapiens (Human), UniProt P98170). 6.59

---

Entries annotated with measured IC50
Measurement target: His-BIR3 (241-356, XIAP) (Homo sapiens (Human), UniProt P98170)
Assay procedure: XIAP-BIR3/SMAC Homogeneous Time Resolved Fluorescence (HTRF) Assay
Assay context: fluorescein labeled SMAC peptide
Give the value in nM but do not write nM after it.

Entry "CN[C@@H](C)C(=O)N[C@H](C(=O)N1Cc2cc(NC(=O)c3cccc4c3ccn4C(=O)N[C@H]3C[C@@H](C(=O)N[C@@H]4CCCc5ccccc54)N(C(=O)[C@@H](NC(=O)[C@H](C)NC)C(C)(C)C)C3)ccc2C[C@H]1C(=O)N[C@@H]1CCCc2ccccc21)C(C)(C)C" : reported IC50 = ? 76

Same thing, different compound: "CN[C@@H](C)C(=O)N[C@H](C(=O)N1C[C@@H](NC(=O)c2ccc(C(=O)Nc3ccc4c(c3)CN(C(=O)[C@@H](NC(=O)[C@H](C)NC)C(C)(C)SCC(=O)OC)[C@H](C(=O)N[C@@H]3CCCc5ccccc53)C4)cc2)C[C@H]1C(=O)N[C@@H]1CCCc2ccccc21)C(C)(C)C" 17

Same thing, different compound: "CN[C@@H](C)C(=O)N[C@H](C(=O)N1C[C@@H](NC(=O)c2ccc(C(=O)Nc3ccc4c(c3)CN(C(=O)[C@@H](NC(=O)[C@H](C)NC)C(C)(C)SCC(=O)N(C)Cc3cccc(F)c3)[C@H](C(=O)N[C@@H]3CCCc5ccccc53)C4)cc2)C[C@H]1C(=O)N[C@@H]1CCCc2ccccc21)C(C)(C)C" 73
